# protocol details: viability profiling in MM1S myeloma cells – cell-based, resazurin fluorescence, basal, 24 h, PK04 Diversity Set, profiling panel (AID 1174);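 also: MM1S multiple myeloma cell line; test concentration not given here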
# condition info: higher = more signal, called active from +8 up or from −8 down
reported metric: z-score

{"compound structure string": "CCOC(=O)C[C@H]1[C@H](OC(=O)c2ccc(C(=O)c3ccccc3)cc2)[C@@H](NC(=O)C2CCCCC2)c2cc(OCCCO)ccc2N1C(=O)c1ccc2ccccc2n1", "reported metric": "z-score", "readout number": 0.491}
{"compound structure string": "CC[C@@H]1O[Si](C(C)C)(C(C)C)c2c1cc(-c1cc(C)c(OC)c(C)c1)nc2-c1ccc(Oc2ccccc2)cc1", "reported metric": "z-score", "readout number": 0.722}
{"compound structure string": "CCOC(=O)C1=C[C@@H](c2ccccc2)N(S(=O)(=O)c2ccc(C)cc2)[C@H]1c1ccc(OC)cc1", "reported metric": "z-score", "readout number": -1.01}
{"compound structure string": "CCCC=C(CCC)[C@@H](NC(=O)C(C)(C)C)c1ccc(C(=O)OC)cc1", "reported metric": "z-score", "readout number": -0.0387}
{"compound structure string": "CC(C)[Si]1(C(C)C)OCc2cc(C3CC3)nc(-c3ccc(Oc4ccccc4)cc3)c21", "reported metric": "z-score", "readout number": 1.03}
{"compound structure string": "CCCC[C@@H](O)C1=C(COc2ccccc2)C[C@H]2C(=O)N(Cc3ccccc3)C(=O)[C@H]2[C@H]1CO", "reported metric": "z-score", "readout number": -0.857}
{"compound structure string": "COC(=O)C(CC#Cc1ccc2c(c1)[C@]1(C(=O)N2)[C@H](c2ccc(O)cc2)N2[C@H](c3ccccc3)[C@H](c3ccccc3)OC(=O)[C@H]2[C@@H]1C(=O)NC[C@H](O)c1ccccc1)C(=O)OC", "reported metric": "z-score", "readout number": -0.275}

---

# System: Human papillomavirus type 1a protein E7 (residues 44-93)
# protocol details: small molecules binding HPV E7 44-93 – biochemical, small-molecule microarray, residues 44-93, 635 nm fluorescence, primary screen (AID 1108);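 also: E7 fragment applied at 1 µg/mL in TBST for 1 h at 4 C; score combines spot fluorescence with its signal to noise ratio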
# condition info: fluorescence 635 nm, higher = more signal
reported metric: composite z-score

{"compound": "CCCCC=C[C@@H](NC(=O)OCc1ccccc1Cl)c1ccccc1", "readout number": 1.4}
{"compound": "CN(C)C(=O)[C@]1(Cc2ccccc2CN=[N+]=[N-])N=C(c2ccc(OCCCO)cc2)O[C@@H]1c1ccccc1", "readout number": 1.47}
{"compound": "CCOC(=O)C[C@H]1[C@H](OC(=O)c2ccc(C(=O)c3ccccc3)cc2)[C@@H](NC(=O)c2ccc3ccccc3n2)c2cc(OCCCO)ccc2N1C(=O)Cc1ccc(OC)cc1", "readout number": 0.947}
{"compound": "[N-]=[N+]=NCc1ccccc1[C@H]1OC(c2ccc(OCCCO)cc2)=N[C@@]1(Cc1ccccc1N=[N+]=[N-])C(=O)NCC(O)CO (stereo not given in full)", "readout number": 1.46}
{"compound": "C=C(/C(=C/C[C@H](OC(C)=O)c1ccc(CO)o1)c1cnc2ccccc2c1)C(C)C", "readout number": 1.43}
{"compound": "COc1ccc(C#Cc2ccc3c(c2)[C@]2(C(=O)N3)[C@H](c3ccc(O)cc3)N3[C@H](c4ccccc4)[C@H](c4ccccc4)OC(=O)[C@H]3[C@@H]2C(=O)Nc2nc3ccccc3s2)cc1", "readout number": 1.26}
{"compound": "[N-]=[N+]=Nc1ccccc1C[C@@]1(C(N)=O)N=C(c2ccc(OCCCO)cc2)O[C@@H]1c1ccccc1N=[N+]=[N-]", "readout number": 1.03}
{"compound": "C=CC[C@@]1(C(=O)NCCCOC)N=C(c2ccc(OCCCO)cc2)O[C@@H]1c1ccccc1", "readout number": 1.06}
{"compound": "CCCCCN1CC=CC23O[C@@H]4/C=C\\CCCOC(=O)C4[C@H]2C(=O)N(C(C)CO)[C@@H]3C1=O (stereo not given in full)", "readout number": -0.141}
{"compound": "[N-]=[N+]=Nc1ccccc1[C@@H]1OC(c2ccc(OCCCO)cc2)=N[C@]1(Cc1ccccc1)C(=O)O", "readout number": 1.4}
{"compound": "CS(=O)(=O)CCOC(=O)C1=CC(CCCO)=CC(c2ccc(CN3CCCC3)cc2)N(Cc2sc3ccccc3c2Cl)C=C1C(=O)OCCS(C)(=O)=O (stereo not given)", "readout number": 0.611}
{"compound": "CCCCCCCCCCC(O)C1C=CC2C(=O)N(c3ccccc3)C(=O)C2N1Nc1ccc(C#N)cc1 (stereo not given)", "readout number": 1.38}
{"compound": "CCCC[C@@H](O)C1=C(COC)C[C@H]2C(=O)N(C)C(=O)[C@H]2[C@H]1CO", "readout number": 0.0944}
{"compound": "CC1CC/C=C\\[C@H]2OC34C=CCN(Cc5ccccc5)C(=O)[C@H]3N(C(CO)C(C)C)C(=O)[C@@H]4C2C(=O)O1 (stereo not given in full)", "readout number": -0.376}
{"compound": "CCCN1C(=O)[C@@]2(Cc3ccccc31)N=C(c1ccc(OCCCO)cc1)O[C@H]2c1ccccc1", "readout number": 1.41}
